src = patent US6867207B2

- Tested on: IL-5 production
- ASSAY TEXT: In vitro inhibition of IL-5 production in human blood (phytohemagglutinin-stimulated whole blood, ELISA);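 note: values marked with an asterisk were tested at 10 µM and unmarked values at 1 µM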
- Type: cell-based
- PARTICULARS: test dose 1×10^−6 M, 48 hours
- Description: In Vitro Inhibition of IL-5 Production in Human Blood Human Whole Blood Stimulation Peripheral blood from healthy male donors was drawn into heparinized syringes (12.5 U heparin/ml). Blood samples were three-fold diluted in RMPI 1640 medium (Life Technologies, Belgium) supplemented with 2 mM L-glutamine, 100 U/ml penicillin and 100 μg/ml streptomycin, and 300 μl fractions were distributed in 24-well multidisc plates. […]
MEASURE NAME: % inh. (percentage inhibition of IL-5 production) (%)
Numbers only, in %.

Below, each entry is followed by its recorded % inh. (percentage inhibition of IL-5 production) result.
| MOLECULE | ASSAYED TARGET | UNIT STRING | VALUE OBSERVED |
| --- | --- | --- | --- |
| O=c1cnn(-c2cc(Cl)c(C(c3ccc(Cl)cc3)c3nc(-c4ccccc4)c(COC4CCCCC4)s3)c(Cl)c2)c(=O)[nH]1 (racemic) | IL-5 production | % | 79 |
| CC(c1ccc(Cl)cc1)(c1nc(-c2ccccc2)no1)c1ccc(-n2ncc(=O)[nH]c2=O)cc1Cl (racemic) | IL-5 production | % | 77 |
| CN1CCN(Cc2sc(C(c3ccc(Cl)cc3)c3c(Cl)cc(-n4ncc(=O)[nH]c4=O)cc3Cl)nc2-c2ccccc2)CC1 (racemic) | IL-5 production | % | 87 |
| CCOC(=O)CSC(c1ccc(Cl)cc1)c1ccc(-n2ncc(=O)[nH]c2=O)cc1Cl (racemic) | IL-5 production | % | 2 |
| O=c1cnn(-c2cc(Cl)c(C(c3ccc(Cl)cc3)c3nnc(-c4ccccc4)o3)c(Cl)c2)c(=O)[nH]1 (stereo not shown) [Compound 190] | IL-5 production | % | 83 |

Give me % inh. (percentage inhibition of IL-5 production) for each of these molecules, listed below.
1. COc1ccccc1-c1csc(C(c2ccc(Cl)cc2)c2c(Cl)cc(-n3ncc(=O)[nH]c3=O)cc2Cl)n1 (racemic)
2. CN(C)CCN(C)Cc1sc(C(c2ccc(Cl)cc2)c2c(Cl)cc(-n3ncc(=O)[nH]c3=O)cc2Cl)nc1-c1ccccc1 (racemic)

OUT:
1. 92
2. 64

Give me % inh. (percentage inhibition of IL-5 production) for each of these molecules, listed below.
1. Nc1ccnc(SC(c2ccc(Cl)cc2)c2c(Cl)cc(-n3ncc(=O)[nH]c3=O)cc2Cl)n1 (racemic)
2. O=c1cnn(-c2ccc(C(c3ccc(Cl)cc3)c3sc(-c4ccccc4Cl)nc3-c3ccccc3)c(Cl)c2)c(=O)[nH]1 (racemic)
3. O=c1cnn(-c2cc(Cl)c(C(Sc3nc4ccccc4[nH]3)c3ccc(Cl)c(C(F)(F)F)c3)c(Cl)c2)c(=O)[nH]1 (stereo not shown)
4. CC(c1ccc(Cl)cc1)(c1nnc(-c2ccccc2)o1)c1c(Cl)cc(-n2ncc(=O)[nH]c2=O)cc1Cl (racemic)
5. O=c1cnn(-c2cc(Cl)c(C(c3ccc(Cl)cc3)c3nnc(-c4cccc(F)c4)o3)c(Cl)c2)c(=O)[nH]1 (racemic)
6. CS(=O)(=O)c1cccc(-c2nnc(C(c3ccc(Cl)cc3)c3c(Cl)cc(-n4ncc(=O)[nH]c4=O)cc3Cl)o2)c1 (racemic)

OUT:
1: 83; 2: 48; 3: 28; 4: 82; 5: 91; 6: 80
